System: OVCAR-4 ovarian
method: NCI tumour cell line growth inhibition, 48 h
Where a SMILES comes first, the peptide text is derived from it. [ ]: non-standard residue; d: D form. The star is where a group is joined. Phe(4-NO2) = N[CH](Cc1ccc([N+](=O)[O-])cc1)C(=O)O; Boc = CC(C)(C)OC(=O)*; OtBu = CC(C)(C)O*
# Lookup of reported TGI keyed by entry
measuredEndpoint: TGI

INSERT INTO assay_data (compound, targetdesc, datavalue) VALUES
  ('COc1ccc(-n2nc(C)c3c2N(C)C2(C)C[C@@H]4C3(C)[C@@H]3CC4(C2)N(C)c2c(c(C)nn2-c2ccc(OC)cc2)[C@H]3C)cc1 (stereo partly specified)', 'OVCAR-4 ovarian', '> 100 µM'),
  ('CSc1nc(Br)nc2c1ncn2C1CC(Oc2ccc(C)cc2)C(COc2ccc(C)cc2)O1 (stereo unspecified)', 'OVCAR-4 ovarian', '> 100 µM'),
  ('CCCCCCCCCCCCCCCCCC1=NC(C)(C)CN1CCO', 'OVCAR-4 ovarian', '9.8 µM'),
  ('O=C(CN=Cc1cccs1)CSC(c1ccccc1)c1ccccc1', 'OVCAR-4 ovarian', '> 100 µM'),
  ('CC(=O)Nc1ccc(-n2cnc3cc(-c4ccc(OCCN5CCCCC5)cc4)ccc32)cc1', 'OVCAR-4 ovarian', '11.7 µM'),
  ('CC1=CC(c2ccccc2)n2c(nc3cc4ccccc4cc32)N1 (stereo unspecified)', 'OVCAR-4 ovarian', '> 100 µM'),
  ('CC(C)(C)NCCC(O)c1cc(C(F)(F)F)nc2c(C(F)(F)F)cccc12 (stereo unspecified)', 'OVCAR-4 ovarian', '27.1 µM'),
  ('CCOC(=O)Cc1csc(NC(=O)C(OC(=O)c2ccc(N)cc2)c2ccccc2)n1 (stereo unspecified)', 'OVCAR-4 ovarian', '> 100 µM'),
  ('COc1cc(C2S/C(=C/c3ccccc3)C(=O)N2c2ccc(Cl)cc2)cc(OC)c1OC (stereo unspecified)', 'OVCAR-4 ovarian', '> 100 µM'),
  ('CC(C)C[C@H](NC(=O)[C@@H](O)[C@H](N)Cc1ccccc1)C(=O)O', 'OVCAR-4 ovarian', '> 100 µM'),
  ('CCCCCCN1C(=O)CN=C1Nc1ccc2cc3ccc(NC4=NCC(=O)N4CCCCCC)cc3nc2c1', 'OVCAR-4 ovarian', '4.01 µM'),
  ('C[C@H](NC(=O)CCC(F)(F)F)C(=O)N[C@@H]1C(=O)N(CCO)c2ncccc2-c2ccccc21', 'OVCAR-4 ovarian', '> 100 µM'),
  ('O=c1[nH]c2cc(O)ccc2n2cc3c(F)cccc3c12', 'OVCAR-4 ovarian', '> 100 µM'),
  ('CCCCCCCCCCCCCCCC(=O)OCC1OC(n2ccc(N)nc2=O)C(O)C1O (stereo unspecified)', 'OVCAR-4 ovarian', '> 100 µM'),
  ('N#CC(=C=[N-])[n+]1ccc(Cl)cc1', 'OVCAR-4 ovarian', '39.8 µM'),
  ('COC(=O)C(Cc1ccc([N+](=O)[O-])cc1)NC(=O)C(CC(=O)OC(C)(C)C)NC(=O)OC(C)(C)C (stereo unspecified) (Boc-Asp(OtBu)-[Phe(4-NO2)]-OMe; configuration not given here)', 'OVCAR-4 ovarian', '> 100 µM'),
  ('CC(=O)C1=C(O)/C(=C\c2ccco2)OC1=O', 'OVCAR-4 ovarian', '> 10 µM'),
  ('COc1cc(/C=C\c2cccnc2Nc2ccccc2)cc(OC)c1OC', 'OVCAR-4 ovarian', '> 100 µM'),
  ('CSc1s[s+]c(SC)c1-c1ccccc1', 'OVCAR-4 ovarian', '17.9 µM'),
  ('COC1(OC)/C(=C(\N)C=O)NC(C)(C)N1O', 'OVCAR-4 ovarian', '> 100 µM'),
  ('CN(C)c1ccc(Sc2ccc3nc(N)nc(N)c3c2)cc1', 'OVCAR-4 ovarian', '17.1 µM'),
  ('O=C(O)c1ccc(Nc2cnc3ccc(C(F)(F)F)cc3n2)cc1', 'OVCAR-4 ovarian', '40.7 µM'),
  ('CCN(CC)CCOc1ccc(C2=C(c3ccccc3)CCc3cc(OC)ccc32)cc1', 'OVCAR-4 ovarian', '17.2 µM'),
  ('Cn1c(=O)c2[nH]c(N/N=C3/SCC(=O)N3Cc3ccccc3)nc2n(C)c1=O', 'OVCAR-4 ovarian', '> 100 µM'),
  ('COc1ncnc2c(-c3ccco3)cn(COCc3ccccc3)c12', 'OVCAR-4 ovarian', '> 50 µM'),
  ('O=C(Cc1nc2ccc([N+](=O)[O-])cc2[nH]c1=O)C(=O)Nc1cc(Cl)c(Cl)cc1Cl', 'OVCAR-4 ovarian', '> 100 µM'),
  ('O=C(Nc1ccccc1)N1N=C(c2ccccc2)C1c1ccccc1 (stereo unspecified)', 'OVCAR-4 ovarian', '> 100 µM'),
  ('CCOC(=O)C1=C(c2ccccc2)N(Cc2ccccc2)C2(O)C=CC(=O)C3C(=O)N(c4ccccc4)C(=O)C132 (stereo unspecified)', 'OVCAR-4 ovarian', '10.8 µM'),
  ('CCN1CC2(C)CC[C@@H](OC)C34[C@@H]2[C@H](OC(C)=O)C2(OCO[C@@]25C[C@H](OC)C2C[C@]3(O)[C@@H]5[C@H]2O)[C@H]14', 'OVCAR-4 ovarian', '> 100 µM'),
  ('CCSc1nc(N)c2cnn(C)c2n1', 'OVCAR-4 ovarian', '> 100 µM'),
  ('CCCCCCCCCCCCNC(=O)[C@H]1CSC(c2ccc(OC)c(F)c2)N1 (stereo partly specified)', 'OVCAR-4 ovarian', '1.99 µM'),
  ('COc1ccccc1OC/C(N=Cc1ccncc1)=N/NC(=O)c1ccncc1', 'OVCAR-4 ovarian', '> 100 µM'),
  ('O=C1c2ccccc2C(=O)c2c1ccc1c3ccccc3n(Cc3ccccc3)c21', 'OVCAR-4 ovarian', '> 100 µM'),
  ('CCOP(=O)(OCC)C(F)(F)CC1CCCCC1', 'OVCAR-4 ovarian', '> 10 µM'),
  ('CC(C)n1nc(C#Cc2cccc(NC(=O)c3cccc(C(F)(F)F)c3)c2)c2c(N)ncnc21', 'OVCAR-4 ovarian', '34.4 µM'),
  ('O=C(O)c1ccccc1-c1ccccc1C(=O)c1ccccc1', 'OVCAR-4 ovarian', '> 100 µM'),
  ('Cc1ccc(Nc2nnc3n2S(=O)(=O)c2cc(C)c(Cl)cc2S3)cc1', 'OVCAR-4 ovarian', '> 100 µM'),
  ('O=[N+]([O-])c1cccc(-c2ncc(-c3ccc(Cl)cc3Cl)[nH]2)c1', 'OVCAR-4 ovarian', '12.1 µM'),
  ('COc1ccc(-c2c(C(C)=O)c(C)n(C3OC(CO)C(O)C(O)C3O)c(=S)c2C#N)cc1 (stereo unspecified)', 'OVCAR-4 ovarian', '> 100 µM'),
  ('COc1ccc(N=C2NN=C(c3c[nH]c4ccccc34)CS2)cc1OC', 'OVCAR-4 ovarian', '> 100 µM'),
  ('CN(C)CCNc1nc2ccccc2c2c1C(=O)c1ccccc1-2', 'OVCAR-4 ovarian', '1.41 µM');
